Reference for the values: ChEMBL document CHEMBL1133224

Listed here are molecules together with their documented Kd.
# Assay Name: Calcium binding affinity (fluorescent calcium probe) expressed in terms of dissociation constant
Write the answer as a number in nM, unit excluded.

Here's what some known entries look like.
- Record Smiles: "Cc1ccc(N(CC(=O)O)CC(=O)O)c(OCCOc2cc3cc(-c4ncc(C(=O)O)o4)oc3cc2N(CC(=O)O)CC(=O)O)c1"
  Readout Units: "nM"
  Kd: 140
- Record Smiles: "O=C(O)CN(CC(=O)O)c1cc2oc(-c3ncc(C(=O)O)o3)cc2cc1OCCOc1c(F)cccc1N(CC(=O)O)CC(=O)O"
  Readout Units: "nM"
  Kd: 5300
- Record Smiles: "Cc1ccc(N(CC(=O)O)CC(=O)O)c(OCCOc2cc(-c3cc4ccc(C(=O)O)cc4[nH]3)ccc2N(CC(=O)O)CC(=O)O)c1"
  Readout Units: "nM"
  Kd: 230

Q. Which value of Kd has been reported for O=C(O)CN(CC(=O)O)c1ccc(F)cc1OCCOc1cc2cc(-c3ncc(C(=O)O)o3)oc2cc1N(CC(=O)O)CC(=O)O in the records?
A. 400

Q. Similarly, Cc1ccc(N(CC(=O)O)CC(=O)O)c(OCCOc2cc(-c3nc4cc(C(F)(F)F)ccc4s3)ccc2N(CC(=O)O)CC(=O)O)c1 ?
A. 660

====

# Assay Name: Calcium binding affinity (fluorescent calcium probe) expressed in terms of dissociation constant
Metric Name: pKd
On this scale, pKd is minus log10 of a concentration expressed in M (mol/L).

- Record Smiles: "O=C(O)CN(CC(=O)O)c1cc(F)ccc1OCCOc1cc2cc(-c3ncc(C(=O)O)o3)oc2cc1N(CC(=O)O)CC(=O)O"
  Metric Name: "pKd"
  Measured Number: 6.11
- Record Smiles: "O=C(O)CN(CC(=O)O)c1ccc(F)cc1OCCOc1cc(-c2cc3ccc(C(=O)O)cc3[nH]2)ccc1N(CC(=O)O)CC(=O)O"
  Metric Name: "pKd"
  Measured Number: 6.33
- Record Smiles: "O=C(O)CN(CC(=O)O)c1ccc(F)cc1OCCOc1cc(-c2nc3cc(C(F)(F)F)ccc3s2)ccc1N(CC(=O)O)CC(=O)O"
  Metric Name: "pKd"
  Measured Number: 5.85

API: the following record is the query input.
Q. Which value of pKd has been reported for O=C(O)CN(CC(=O)O)c1ccc(Cl)cc1OCCOc1cc2cc(-c3ncc(C(=O)O)o3)oc2cc1N(CC(=O)O)CC(=O)O in the records?
A. 6.40
